The reported numbers originate from ChEMBL document CHEMBL1201862.

system: IGROV-1; experiment: NCI tumour cell line growth inhibition, 48 h
Activity calls are given as the source filed them. Cut-off read from the data, not from the text of the source: active = GI50 up to about 1.1 µM and inactive = higher.
Possible outcomes: yes for active, no for inactive

compound	labelClass
CCCC(=O)Nc1cn(COC)c(C(=O)N2C[C@H]3C[C@@]34C2=CC(=O)c2[nH]cc(C)c24)n1	no
CC#N.O[C@@H]1CCCC[C@@H]1O.O[C@@H]1CCCC[C@@H]1O.[TeH2]	no
O=C1C2Nc3ccccc3SC2C(=O)N1c1ccccc1C(F)(F)F (stereo unspecified)	no
O=C1/C(=C/c2ccc(Cl)cc2)Oc2ccccc21	no
NCC1OC(n2cnc3c(N)ncnc32)CC1O (stereo unspecified)	no
COC(=O)NN=C1C(C)(C)C(=O)C1(C)C	no
CC(C)c1ccc(C(c2c(O)oc3ccccc3c2=O)c2c(O)oc3ccccc3c2=O)cc1	no
C[C@@H]1CCC2[C@@H](C)[C@H](O[C@H]3O[C@@H]4O[C@@]5(C)CCC6[C@H](C)CCC([C@H]3C)[C@]64OO5)O[C@@H]3O[C@@]4(C)CCC1[C@@]23OO4 (stereo partly specified)	yes
CCc1cccc(C(C)C)c1NC(=O)C(=O)C1C(=O)Nc2ccccc2[S+]1[O-] (stereo unspecified)	no
CC(C)[Si](OC1=CCCCCC12C(=O)N(C)c1ccccc12)(C(C)C)C(C)C (stereo unspecified)	no
N#Cc1ccc(C(=O)/C=C/c2ccc(O)c(O)c2)cc1	no
CCCCCCCC1(c2ccc(N)cc2)CCC(=O)NC1=O (stereo unspecified)	no
C=C1CCC2CC1[C@@H](C(=O)c1c[nH]c3ccccc13)NC2(C)C (stereo partly specified)	no
O=Cc1c2n(c3ccccc13)N[C@@](Cc1ccc(O)cc1)(C(=O)O)C2	no
O/N=N/c1cnccn1	no
COc1ccccc1Nc1nc(NNC(=O)Cc2ccccc2)nc(NNC(=O)c2ccncc2)n1	no
C/C1=C/C[C@@H](/C(C)=C/c2csc(C)n2)OC(=O)C[C@H](O)C(C)(C)C(=O)[C@H](C)[C@@H](O)[C@@H](C)CCC1	yes
Oc1[nH]c(Nc2cccc(Cl)c2)nc2ncnc1-2	no
CC1(C)C(=O)/C=C\C(=O)C(C)(C)C(=O)/C=C\C(=O)C(C)(C)C(=O)/C=C\C(=O)C(C)(C)C(=O)/C=C\C1=O	no
CCCNC(=O)c1cc(NC(=O)c2cc(NC(=O)CCS(=O)(=O)OC)cn2C)cn1C	no
COc1c(-c2nc3ccc(N4CCN(C)CC4)nc3[nH]2)cc(OC)c2c1nc(CO)n2C	no

---

test system: NCI/ADR-RES; assay: NCI tumour cell line growth inhibition, 48 h
The source made the active and inactive calls. Cut-off read from the data, not from the text of the source: active = GI50 up to about 1.1 µM and inactive = higher.
Known GI50 of a selection of compounds
assayMetric: GI50

>>> print(df.to_string())
                                    compound  subjectoftest  assaymetric             measured
 0  O=S(=O)(Nc1ccc2ccc3cccc4ccc1c2c34)c1ccccc1    NCI/ADR-RES         GI50   35.1 µM (inactive)
 1  O=[N+]([O-])c1ccc(C(O)(C#CCN2CCCC2)c2ccccc2)cc1 (centres undefined)    NCI/ADR-RES         GI50   69.5 µM (inactive)
 2     COC(=O)c1ccc(/C=C2\CCc3ccccc3C2=O)cc1    NCI/ADR-RES         GI50  > 100 µM (inactive)
 3        COc1cc(CNC(=O)CCCCCCCCCCSC#N)ccc1O    NCI/ADR-RES         GI50   17.1 µM (inactive)
 4  CC(C)[N+]([O-])(CCCNc1c2ccccc2nc2cccc([N+](=O)[O-])c12)C(C)C    NCI/ADR-RES         GI50    0.581 µM (active)
 5  CCC1=CCC23C(=O)C=CC(=O)C2(C1)C(=O)c1cccc(OC)c1C3=O (centres undefined)    NCI/ADR-RES         GI50   20.2 µM (inactive)
 6      O=C(/C=C/c1ccc2c(c1)OCO2)c1ccc(O)cc1    NCI/ADR-RES         GI50   1.76 µM (inactive)
 7               O=C(CC(Cl)=C(Cl)Cl)c1ccccc1    NCI/ADR-RES         GI50   74.8 µM (inactive)
 8            Nc1nc(NCC2(CO)CCC2)cc(=O)[nH]1    NCI/ADR-RES         GI50  > 100 µM (inactive)
 9  CCc1cccc(C(C)C)c1NC(=O)C(=O)C1C(=O)Nc2ccccc2[S+]1[O-] (centres undefined)    NCI/ADR-RES         GI50  > 100 µM (inactive)
10       CN1CCN(Cc2ccc(C(=S)Nc3ccccc3)s2)CC1    NCI/ADR-RES         GI50   32.9 µM (inactive)
11  COc1ccccc1Nc1nc(NNC(=O)Cc2ccccc2)nc(NNC(=O)c2ccncc2)n1    NCI/ADR-RES         GI50   > 10 µM (inactive)
12        CN(C)CCCN1c2ccccc2C(C)(C)c2ccccc21    NCI/ADR-RES         GI50   17.1 µM (inactive)
13                          O=NN1CCCS1(=O)=O    NCI/ADR-RES         GI50  > 100 µM (inactive)
14  O=C(O)c1c2c(cc3c1CC(Cc1ccccc1)C3=O)CCC2 (centres undefined)    NCI/ADR-RES         GI50  > 100 µM (inactive)
15                      CC(C)C(=O)CP(=O)(O)O    NCI/ADR-RES         GI50  > 100 µM (inactive)
16  CC(C)Cc1ccc(C(C)C(=O)N2CCN(/C=C/c3ccccc3)CC2)cc1 (centres undefined)    NCI/ADR-RES         GI50   13.1 µM (inactive)
17  COc1cccc(C2c3cc4c(cc3OC(C)(O)C2C)OCO4)c1O (centres undefined)    NCI/ADR-RES         GI50   2.13 µM (inactive)
18  O=c1[nH]nc(Cc2ccc(Cl)cc2)n1/N=C/c1c[nH]c2ccccc12    NCI/ADR-RES         GI50   82.8 µM (inactive)
19  N#Cc1c(O)nc2nn3c4ccc5ccccc5c4nnc3c2c1-c1ccc(Cl)cc1    NCI/ADR-RES         GI50   4.55 µM (inactive)
20  CC#Cc1cc2c(cc1O)CC[C@@H]1[C@@H]2CC[C@]2(C)[C@@H](O)CC[C@@H]12    NCI/ADR-RES         GI50    0.885 µM (active)
21  CC(=O)N1NC(c2ccccc2)=CC(=O)/C1=C/C(=O)c1ccccc1    NCI/ADR-RES         GI50   50.4 µM (inactive)
22  CCOC(=O)C(O)(CC1=NC(C(=O)OC)(C(=O)OC)C(c2cccc(C=O)c2)O1)C(=O)OCC (centres undefined)    NCI/ADR-RES         GI50  > 100 µM (inactive)
23  CSC(Cc1ccc2c(c1)Sc1ccccc1O2)=[N+]1CCOCC1    NCI/ADR-RES         GI50   56.8 µM (inactive)

---

tested on: DLD-1; experiment: NCI tumour cell line growth inhibition, 48 h
Activity calls are given as the source filed them. Cut-off read from the data, not from the text of the source: active = GI50 up to about 1.1 µM and inactive = higher.
Possible outcomes: t = active, f = inactive

molecule	subjectOfTest	labelClass
CCCC(O)[C@@]1(CC)CC(C)C(O)(C2(C)C[C@H](C)[C@@H](C(CC)C(=O)C(C)[C@@H](O)[C@H](C)C3OC(O)(C(CC)C(=O)O)[C@@H](C)C(O)C3CC)O2)O1 (stereo partly drawn)	DLD-1	t
O=c1cc[nH]c2c1ccc1ncccc12	DLD-1	f
N=C(N)N/N=C(/c1nc2ccc([N+](=O)[O-])cc2[nH]c1=O)C(O)c1ccc([N+](=O)[O-])cc1 (stereo not drawn)	DLD-1	f
CCOC(=O)c1c(-c2ccccc2)oc(-c2ccccc2)c1C(=O)OCC	DLD-1	f
O=[N+]([O-])c1ccc(-c2ccc(-c3csc(Nc4ccccc4)n3)o2)cc1	DLD-1	f
CCCCCC1C2C(=O)NC(=O)C1C(=O)NC2=O (stereo not drawn)	DLD-1	f
O=c1cccccc1NCCCCCCNc1cccccc1=O	DLD-1	f
O=C1C2Nc3ccccc3SC2C(=O)N1c1ccccc1C(F)(F)F (stereo not drawn)	DLD-1	f

---

tested on: LOX IMVI; assay: NCI tumour cell line growth inhibition, 48 h
Active and inactive are the calls of the source. Rule as the data show it: active = GI50 up to about 1.1 µM and inactive = higher.

compound	GI50
Cc1ccc(S(=O)(=O)N/N=C/C(=C/c2ccc(Cl)cc2)CC(/C=N/NS(=O)(=O)c2ccc(C)cc2)=C\c2ccc(Cl)cc2)cc1	2.1 µM (inactive)
CC1CCCCCC(=O)c2c(O)cc(O)cc2CC(=O)O1 (centres undefined) [CURVULARIN]	43.9 µM (inactive)
CCN(CC)CCC(=O)O[C@H]1CC[C@H](CC(C)[C@H]2CC(=O)C(C)C=C(C)[C@H](OC(=O)CCN(CC)CC)C(OC)C(=O)[C@@H](C)CC(C)/C=C/C=C/C=C(C)C(OC)CC3CC[C@H](C)[C@](O)(O3)C(=O)C(=O)N3CCCCC3C(=O)O2)CC1OC (some centres undefined)	0.0222 µM (active)
Cc1ccc(S(=O)(=O)Nn2c(-c3ccccc3)c(C#N)c(-c3ccc([N+](=O)[O-])cc3)c(C#N)c2=O)cc1	> 100 µM (inactive)
